Attribution: patent US20230081357A1

# protocol notes: In vitro soothing efficacy, cell viability by MTT after SLS
# Format: cell-based
# condition set: human; read-out: % mean cell viability (standard deviation)
measured parameter: viability at 70 min, 0.3 % (%)

> print(dat)
                                   molecule          measured.parameter  display.unit  reported.value
1  CCCCCCCCCCCCOS(=O)(=O)[O-].[Na+] [Positive control (PC), sodium lauryl sulfate]  viability at 70 min, 0.3 %             %            47.4
